# System: GH3-TRE-Luc cell line
# setup_conditions: read-out: AC50 (uM) modified / 1000; Tox21_110001=Tox21_201528; viability, 1 nM T3 present, 24 h
reported_metric: CC50
Could you write the number and then its unit?

Asked: Find the recorded CC50 belonging to CCCCCCCCCc1ccc(O)cc1 [4-Nonylphenol, branched] and report it.
Given back: 23.6 µM

###

# method_summary: in vitro
# setup_conditions: rat, gh3-tre-luc cells, AC50 (uM) modified / 1000
Structures can show the parent of a compound that is named as a salt.
reported_metric: CC50 at 24 h

molecule | CC50 at 24 h
COC(=O)[C@H](c1ccccc1Cl)N1CCc2sccc2C1 [Clopidogrel hydrogen sulfate] | > 50 µM
Nc1cccc(S(=O)(=O)c2cccc(N)c2)c1 [3,3'-Sulphonyldianiline] | > 90 µM
O=C1c2ccccc2C(=O)c2c(O)c(O)cc(O)c21 [Purpurin] | 71.9 µM
COc1ccc(Nc2ccc(OC)cc2)cc1 [4,4'-Dimethoxydiphenylamine] | 50.3 µM
CCCCCCCCCCCCCOC(=O)CCSCCC(=O)OCCCCCCCCCCCCC [Di(tridecyl) thiodipropionate] | > 20 µM

Asked: Please give the measured CC50 at 24 h for this molecule: NC(=O)Oc1ccc(Cc2ccccc2)cc1 [Diphenan]
Given back: > 50 µM

Asked: Which CC50 at 24 h value is on record for C/C=C/c1ccc(OC)cc1 [Anethole] ?
Given back: > 90 µM

Asked: Consider the molecule shown here: C1CCC2=NCCCN2CC1 [1,8-Diazabicyclo[5.4.0]undec-7-ene] What is its recorded CC50 at 24 h?
Given back: > 90 µM

Asked: Quick one: CC50 at 24 h for CCCC(=O)C(CC)Sc1ccoc1C (stereo not shown) [3-(2-Methyl-3-furylthio)-4-heptanone] ?
Given back: > 90 µM

Asked: Given the entry C1COC(NC(C2CC2)C2CC2)=N1 [Rilmenidine] , report its measured CC50 at 24 h.
Given back: > 50 µM
